experiment: Cytotoxicity against human A549 cells after 4 days by Coulter counting analysis; type: cell-based
measureName: CC50 at 96 h (µM)

1) Nc1nc2c(ncn2[C@@H]2CN(C(=O)CCP(=O)(O)O)C[C@H]2OC[C@@H](O)P(=O)(O)O)c(=O)[nH]1 :: 132

====

target: Hypoxanthine-guanine phosphoribosyltransferase (Mycobacterium tuberculosis (strain ATCC 25618 / H37Rv), UniProt P9WHQ9); test: Inhibition of Mycobacterium tuberculosis recombinant N-terminal 6His-tagged HGPRT expressed in Escherichia coli BL21 (DE3) using fixed concentration of guanine and variable concentrations of PRib-PP as substrate in presence of pyrophosphate by spectrophotometric analysis
Sequence (P9WHQ9 whole entry): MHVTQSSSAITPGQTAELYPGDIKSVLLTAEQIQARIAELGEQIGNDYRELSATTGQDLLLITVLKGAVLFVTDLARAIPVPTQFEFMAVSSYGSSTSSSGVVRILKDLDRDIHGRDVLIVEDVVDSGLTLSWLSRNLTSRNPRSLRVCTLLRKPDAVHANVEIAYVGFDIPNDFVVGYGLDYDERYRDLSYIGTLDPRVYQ
pKi: −log10 of the molar value.
measureName: pKi

1. O=P(O)(O)CO[C@H]1CNC[C@H]1n1cnc2c(O)ncnc21 :: 5.52
2. Nc1nc2c(ncn2[C@@H]2CNC[C@@H]2OCP(=O)(O)O)c(=O)[nH]1 :: 6.13

Values from ChEMBL document CHEMBL4265962
